Tested on: T-47D breast
experimentalDetails: NCI-60 one-dose screen, 48 h
appliedConditions: 10 µM unless noted
The panel holds about 83,000 compounds, 20% with a hit somewhere; the sample as a whole holds those more often. Active and inactive are the calls of the source. How the source made its calls: active means growth percent below 10; inactive means the rest.
Answer with one of the outcomes given here: class 1 = active, class 0 = inactive

# example entries with known answers
compound=C=C1C(=O)O[C@H]2[C@H]1CC/C(COC(=O)N[C@H](Cc1c[nH]c3ccccc13)C(=O)OC)=C\CC[C@@]1(C)O[C@@H]21 discretelabel="class 1"
compound=COc1ccc2c(c1)C/C(=C\c1cc(-c3ccc4c(c3)OCO4)n[nH]1)C2=O discretelabel="class 0"
compound=Cc1cccc2c1NC(=O)[C@@]21[C@H](C(=O)c2ccccc2)[C@]2(C(=O)Nc3ccccc32)[C@H]2CCCN21 discretelabel="class 0"

Assay result, entry COc1cccc(-c2nn(-c3ccccc3)cc2-c2ccnc(NCCCNS(=O)(=O)c3ccc(Br)cc3)c2)c1 — outcome?
class 0

For CCC(CC)C(=O)OC(C)COc1ccc(C(C)(C)C)cc1 (centres undefined) , what call appears in the results of this test?
class 0

Could you please tell me the result logged for CCC1C(=O)COC1=O (centres undefined) in this assay?
class 0

Fill in: this test's call for Cc1cc(N2CCOCC2)nc(N(CCCNc2ccnc3cc(Cl)ccc23)Cc2ccco2)n1 is ___
class 0

Status in this test for Cc1nn2c(-c3nc4cc(Cl)c(Cl)cc4[nH]3)c(-c3ccc(F)cc3)nc2s1 ?
class 1

Tell me the assay call for COC(=O)C(Cc1ccccc1)n1cc(COc2nc(Cl)nc(Nc3ccc(Cl)cc3)n2)nn1 (centres undefined) please.
class 0
